Consider the following molecules and their measured glass transition temperature readings.
Give your result in °C as a bare value.

Worked examples follow.
*Oc1ccc2c(c1)C(=O)N(c1ccc(Oc3ccc(Oc4cccc(N5C(=O)c6cccc(*)c6C5=O)c4)cc3)cc1)C2=O (repeat unit) : 249.00
*c1ccc2c(c1)C(=O)N(c1ccc(Oc3c(F)c(F)c(Oc4ccc(N5C(=O)c6ccc(C(*)(C(F)(F)F)C(F)(F)F)cc6C5=O)cc4)c(F)c3F)cc1)C2=O (repeat unit) : 243.80
*Oc1ccc2c(c1)C(=O)N(c1ccc(Oc3c(C)cc(Oc4ccc(N5C(=O)c6ccc(*)cc6C5=O)cc4)c(C)c3C)cc1)C2=O (repeat unit) : 261.00

Asked: # input molecule: *C(=O)c1ccc2c(c1)C(=O)N(c1cccc(Oc3ccc(P(=O)(c4ccccc4)c4ccc(Oc5ccc(N6C(=O)c7ccc(*)cc7C6=O)cc5)cc4)cc3)c1)C2=O (repeat unit) ; wanted: its glass transition temperature
Given back: 232.00

---

property-measured: glass transition temperature (°C)
Give your result in °C as a bare value.

Worked examples follow.
*CC1CCC(COC(C)OC(=O)c2ccc(C(=O)OC(C)O*)cc2)CC1 (repeat unit) : 61.00
*C(=O)Nc1ccc(C2(c3ccc(NC(=O)c4ccc5c(c4)C(=O)N(c4ccc(-c6ccc(N7C(=O)c8ccc(*)cc8C7=O)c(OC)c6)cc4OC)C5=O)cc3)c3ccccc3-c3ccccc32)cc1 (repeat unit) : 181.00
*Oc1ccc(CC(NC(=O)Cc2ccc(OC(=O)COCCOCC(*)=O)cc2)C(=O)OCCCCCCCC)cc1 (repeat unit) : 23.00

Asked: # input compound: *c1ccc(Oc2ccc(N3C(=O)c4ccc(Oc5c(C)cc(Cc6cc(C)c(Oc7ccc8c(c7)C(=O)N(*)C8=O)c(C)c6)cc5C)cc4C3=O)cc2)cc1 (repeat unit) ; wanted: its glass transition temperature
Given back: 266.00

Asked: # input compound: *C1C2CC(C)C(C2)C1* (repeat unit) ; wanted: its glass transition temperature
Given back: 350.00

---

Consider the following molecules and their measured glass transition temperature readings.
Give your result in °C as a bare value.

Worked examples follow.
*c1ccc2c(c1)C(=O)N(c1cc(C(=O)Nc3cccc4c(NC(=O)c5ccc(C)c(N6C(=O)c7ccc(C(*)(C(F)(F)F)C(F)(F)F)cc7C6=O)c5)cccc34)ccc1C)C2=O (repeat unit) : 250.00
*CCOCCOCCOCCOCCOCCOC(=O)c1cc(OCCCCCCOc2ccc(-c3ccc(OC)cc3)cc2)cc(C(=O)O*)c1 (repeat unit) : 12.50

As a next step, examine the molecule that follows.
Asked: # input molecule: *Nc1cc(NC(=O)c2cccc(C(*)=O)c2)cc(C(=O)Oc2ccc(Oc3ccc(C#N)c(C#N)c3)cc2)c1 (repeat unit) ; wanted: its glass transition temperature
Given back: 305.00

---

Consider the following compounds and their measured glass transition temperature readings.
Form entry: enter the amount, then its unit.

Worked examples follow.
*c1ccc(Oc2ccc(C3(c4ccc(Oc5ccc(N6C(=O)c7ccc(Oc8ccc(C9(c%10ccc(Oc%11ccc%12c(c%11)C(=O)N(*)C%12=O)cc%10)CCCCCCCCCCC9)cc8)cc7C6=O)cc5)cc4)CCC(C(C)(C)C)CC3)cc2)cc1 (repeat unit) : 254.00 °C
*CCCCCCCCCCCOC(=O)c1ccc2cc(C(=O)O*)ccc2c1 (repeat unit) : 43.00 °C

As a next step, examine the compound that follows.
Asked: # input compound: *Oc1cc(OC(=O)c2ccc(C(*)=O)cc2)cc(C(=O)OCCN(CC)c2ccc(/N=N/c3ccc([N+](=O)[O-])cc3)cc2)c1 (repeat unit) ; wanted: its glass transition temperature
Given back: 130.00 °C

---

Consider the following molecules and their measured glass transition temperature readings.
Give your result in °C as a bare value.

Worked examples follow.
*NC(CCC(=O)Nc1ccc(N(c2ccccc2)c2ccccc2)cc1)C(*)=O (repeat unit) : 132.00
*Oc1cccc2c(OC3(F)C(*)(F)C(F)(F)C3(F)F)cccc12 (repeat unit) : 138.00

Asked: # input molecule: *CC(*)c1c([2H])c([2H])c([2H])c([2H])c1[2H] (repeat unit) ; wanted: its glass transition temperature
Given back: 100.00

Asked: # input molecule: *c1ccc(C(c2ccc(N3C(=O)c4cc(-c5ccc([Si](C)(C)C)cc5)c(-c5cc6c(cc5-c5ccc([Si](C)(C)C)cc5)C(=O)N(*)C6=O)cc4C3=O)cc2)(C(F)(F)F)C(F)(F)F)cc1 (repeat unit) ; wanted: its glass transition temperature
Given back: 365.00

---

Where glass transition temperature equals or exceeds 100 °C, the correct label is true; where it does not, the label is false.

*CCCCCCCCCCOC(=O)CCCCCCC(=O)O* (repeat unit) : false

Asked: Reported glass transition temperature reaches at least 100 °C for *c1ccc(Oc2ccc(Oc3ccc(N4C(=O)c5ccc(Oc6ccc(C(c7ccccc7)(c7ccccc7)c7ccc(Oc8ccc9c(c8)C(=O)N(*)C9=O)cc7)cc6)cc5C4=O)cc3)c(C(C)(C)C)c2)cc1 (repeat unit) ?
Given back: true

Asked: Reported glass transition temperature reaches at least 100 °C for *O[Si](C)(C)O[Si](C)(C)O[Si](C)(C)Oc1c(C)cc(-c2cc(C)c(*)c(C)c2)cc1C (repeat unit) ?
Given back: false

Asked: Reported glass transition temperature reaches at least 100 °C for *Oc1ccc(S(=O)(=O)c2ccc(Oc3ccc(C(=O)c4ccc(-c5ccc(C(=O)c6ccc(*)cc6)cc5)cc4)cc3)cc2)cc1 (repeat unit) ?
Given back: true

---

Where glass transition temperature equals or exceeds 200 °C, the correct label is 1; where it does not, the label is 0.

Asked: Reported glass transition temperature reaches at least 200 °C for *Oc1ccc(NC(=O)c2ccc([Si](c3ccccc3)(c3ccccc3)c3ccc(C(*)=O)cc3)cc2)cc1 (repeat unit) ?
Given back: 1

---

property-measured: glass transition temperature (°C)
Give your result in °C as a bare value.

Worked examples follow.
*c1ccc(Oc2cccc(NC(=O)c3cc(C(=O)Nc4cccc(Oc5ccc(-c6nnc(*)o6)cc5)c4)cc(N4C(=O)c5ccccc5C4=O)c3)c2)cc1 (repeat unit) : 245.00
*Cc1ccc(C(C)c2ccc(Cn3c(=O)c4cc5c(=O)n(*)c(=O)c5cc4c3=O)o2)o1 (repeat unit) : 116.00
*Oc1ccc(OC(=O)c2ccc(OCCCCCCOc3ccc(C(*)=O)cc3)cc2)cc1/N=N/c1ccc(C#N)cc1 (repeat unit) : 98.00
*O[Si](O[Si](C)(C)c1ccc([Si](*)(C)C)cc1)(c1ccccc1)c1ccccc1 (repeat unit) : 0.00

Asked: # input molecule: *CC(*)C(=O)OCCCCCCCCC (repeat unit) [Poly(n-nonyl acrylate) ] ; wanted: its glass transition temperature
Given back: -60

Asked: # input molecule: *OC(C)COC(*)=O (repeat unit) [Poly(propylene carbonate)] ; wanted: its glass transition temperature
Given back: 35.73

Asked: # input molecule: *O[Si](C)(C)CCCC(=O)Oc1ccc(/C=N/c2ccc(Oc3ccc(/N=C/c4ccc(OC(=O)CCC[Si](*)(C)C)cc4)cc3)cc2)cc1 (repeat unit) ; wanted: its glass transition temperature
Given back: 52.00

Asked: # input molecule: *CCCCCCCCCCCNC(=O)CCCCCCCCC(=O)N* (repeat unit) ; wanted: its glass transition temperature
Given back: 40.00

Asked: # input molecule: *Oc1ccc(C2(c3ccc(Oc4ccc(C(=O)c5cccc6cccc(C(=O)c7ccc(*)cc7)c56)cc4)cc3)c3ccccc3-c3ccccc32)cc1 (repeat unit) ; wanted: its glass transition temperature
Given back: 269.00

Asked: # input molecule: *c1ccc(OC(=O)c2ccc([Si](c3ccccc3)(c3ccccc3)c3ccc(C(=O)Oc4ccc(C5(*)OC(=O)c6ccccc65)cc4)cc3)cc2)cc1 (repeat unit) ; wanted: its glass transition temperature
Given back: 250.00

Asked: # input molecule: *CC(*)c1ccc(Cl)c(Cl)c1 (repeat unit) ; wanted: its glass transition temperature
Given back: 128.00

---

Consider the following compounds and their measured glass transition temperature readings.
Give your result in °C as a bare value.

*C=Cc1cc(OC)c(*)cc1OCC(CC)CCCC (repeat unit) : 66.00
*c1ccc(-c2ccc(OCCCC)c(-c3cc(*)ccc3OCCCC)c2)cc1 (repeat unit) : 164.00

Asked: # input compound: *C=Cc1cc(OC)c(*)cc1OCCC(C)CCCC(C)C (repeat unit) ; wanted: its glass transition temperature
Given back: 50.00

---

property-measured: glass transition temperature (°C)
Give your result in °C as a bare value.

Worked examples follow.
*Cc1ccccc1CSS* (repeat unit) : 39.00
*C(c1ccc(N(C)C)cc1)C(*)c1ccc([N+](=O)[O-])cc1 (repeat unit) : 139.00
*N=P(N=P(N=S(*)(=O)NCCCC)(NCCCC)NCCCC)(NCCCC)NCCCC (repeat unit) : -16.00
*CC(*)(C)C(=O)OCC(=O)N1CCCC1 (repeat unit) : 144.00
*c1ccc(Oc2ccc(N3C(=O)c4ccc(Oc5ccc(Oc6ccc(Oc7ccc8c(c7)C(=O)N(*)C8=O)cc6)cc5)cc4C3=O)cc2)cc1 (repeat unit) : 215.00
*/C(C#N)=C(\C#N)N1C(=O)c2ccc(C(=O)c3ccc(-c4ccc5c(c4)C(=O)N(*)C5=O)cc3)cc2C1=O (repeat unit) : 249.00
*Oc1ccc(S(=O)(=O)c2ccc(Oc3c(C)cc(Cc4cc(C)c(*)c(C)c4)cc3C)cc2)cc1 (repeat unit) : 232.00
*C(=O)c1ccc2c(c1)C(=O)N(C1CCC(CC3CCC(N4C(=O)c5ccc(*)cc5C4=O)CC3)CC1)C2=O (repeat unit) : 254.00
*c1cc(CCCCCCCC)c(*)s1 (repeat unit) : -13.10
*CC(*)c1ccc(C(C)(O)CC)cc1 (repeat unit) : 190.00

Asked: # input compound: *Nc1ccccc1-c1ccc(NC(=O)c2cccc(C(*)=O)c2)cc1 (repeat unit) ; wanted: its glass transition temperature
Given back: 248.00

Asked: # input compound: */C=C/C1CC(*)C(C(=O)OCCNC(C)(C)C)C1 (repeat unit) ; wanted: its glass transition temperature
Given back: 29.00

Asked: # input compound: *O[Si](C)(CCC(F)(F)F)CCC(F)(F)C(F)(F)C(F)(F)C(F)(F)C(F)(F)C(F)(F)CC[Si](*)(C)CCC(F)(F)F (repeat unit) ; wanted: its glass transition temperature
Given back: -24.00

Asked: # input compound: *OCCOC(=O)CCCCC(=O)OCCOc1nc(-c2ccc(OCCCC)cc2)nc(*)c1-c1ccc(OC)cc1 (repeat unit) ; wanted: its glass transition temperature
Given back: 34.00

Asked: # input compound: *Oc1cc(OC(=O)c2ccc(OC)cc2)c(OC(=O)CCCC(*)=O)cc1OC(=O)c1ccc(OC)cc1 (repeat unit) ; wanted: its glass transition temperature
Given back: 88.00

Asked: # input compound: *Oc1ccc(C(CCC)c2ccc(OC(*)=S)cc2)cc1 (repeat unit) ; wanted: its glass transition temperature
Given back: 130.00

Asked: # input compound: *CC(*)(C)C(=O)OCCC1CCN(CCCCCCOc2ccc(/N=N/c3ccc([N+](=O)[O-])cc3)cc2)CC1 (repeat unit) ; wanted: its glass transition temperature
Given back: 27.00
